Values compiled from patent US8258115B2.

# TEST_SUMMARY: Degradation of the active stereoisomer S,S at 25° C. and 65% R.H.
# Assay type: physicochemical
# RECORDED_CONDITIONS: 90 days
READOUT: percentage of the active S,S stereoisomer remaining (%)
Give just the number in %; leave the unit off.

Entry C[S+](CCC(N)C(=O)[O-])C[C@H]1O[C@@H](n2cnc3c(N)ncnc32)[C@H](O)[C@@H]1O.C[S+](CCC(N)C(=O)[O-])C[C@H]1O[C@@H](n2cnc3c(N)ncnc32)[C@H](O)[C@@H]1O.O=S(=O)(O)O.O=S(=O)([O-])[O-].[Mg+2] (stereo partly drawn) : reported percentage of the active S,S stereoisomer remaining = ?
96.8

Entry C[S+](CCC(N)C(=O)[O-])C[C@H]1O[C@@H](n2cnc3c(N)ncnc32)[C@H](O)[C@@H]1O.O=S(=O)(O)O.O=S(=O)(O)O.[Ca+2].[Cl-].[Cl-] (stereo partly drawn) : reported percentage of the active S,S stereoisomer remaining = ?
94.9

Entry C[S+](CCC(N)C(=O)[O-])C[C@H]1O[C@@H](n2cnc3c(N)ncnc32)[C@H](O)[C@@H]1O.C[S+](CCC(N)C(=O)[O-])C[C@H]1O[C@@H](n2cnc3c(N)ncnc32)[C@H](O)[C@@H]1O.O=S(=O)(O)O.[Ca+2].[Cl-].[Cl-] (stereo partly drawn) : reported percentage of the active S,S stereoisomer remaining = ?
96.7

Entry C[S+](CCC(N)C(=O)[O-])C[C@H]1O[C@@H](n2cnc3c(N)ncnc32)[C@H](O)[C@@H]1O.Cl.Cl.O=S(=O)([O-])[O-].[Mg+2] (stereo partly drawn) [SAMe•2.0HCl•1.0MgSO4] : reported percentage of the active S,S stereoisomer remaining = ?
95.6

Entry C[S+](CCC(N)C(=O)[O-])C[C@H]1O[C@@H](n2cnc3c(N)ncnc32)[C@H](O)[C@@H]1O.O=S(=O)(O)O.O=S(=O)(O)O.[Cl-].[Cl-].[Mg+2] (stereo partly drawn) : reported percentage of the active S,S stereoisomer remaining = ?
95.3

Entry C[S+](CCC(N)C(=O)[O-])C[C@H]1O[C@@H](n2cnc3c(N)ncnc32)[C@H](O)[C@@H]1O.C[S+](CCC(N)C(=O)[O-])C[C@H]1O[C@@H](n2cnc3c(N)ncnc32)[C@H](O)[C@@H]1O.O=S(=O)(O)O.[Cl-].[Cl-].[Mg+2] (stereo partly drawn) : reported percentage of the active S,S stereoisomer remaining = ?
96.8
